# tgt: T1, Cynomolgus CD3εδ Fc heterodimer (Cy CD3ε Fc / CD3δ Fc-HIS) (cynomolgus, UniProt Q95LI8 22-100)
# T1 chain 1: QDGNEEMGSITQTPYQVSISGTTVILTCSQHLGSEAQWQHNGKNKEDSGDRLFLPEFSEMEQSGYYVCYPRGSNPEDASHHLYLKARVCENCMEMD
# T1 chain 2: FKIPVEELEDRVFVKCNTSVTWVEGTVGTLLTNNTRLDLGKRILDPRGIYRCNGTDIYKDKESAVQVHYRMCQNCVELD
# procedure.text: BLI (Octet), IgG on AHC sensor, pH 6.0
quantity: koff (s⁻¹)
Enter your answer as a number in s⁻¹; do not include the unit.

{"binder": "SAD10320_P02_A06 (ADI-57367) (antibody, V domains shown, IgG; also called Ab82) VH: QVQLVQSGAEVKKPGASVKVSCKASGFNIKDYYMHWVRQAPGQRLPWMGWIDLENANTIYDAKFQGRVTITRDTSASTAYMELSSLRSEDTAVYYCARDAHERYFYDVWGQGTLVTVSS VL: DIVMTQSPDSLAVSLGERATINCKSSQSLLNARTGKNYLAWYQQKPGQPPKLLIYWASTRESGVPDRFSGSGSGTDFTLTISSLQAEDVAVYYCKQSHLRRTFGGGTKVEIK", "unit.info": "s⁻¹", "val": 0.00264}

INPUT: Recorded koff of SAD10320_P04_F10 (ADI-57385) (antibody, V domains shown, IgG; also called Ab107) VH: QVQLVQSGAEVKKPGASVKVSCKASGFNIKDYYMHWVRQAPGQTLDWMGWIDLENANTIYDAKFQGRVTITRDTSASTAYMELSSLRSEDTAVYYCARDAYGRNHYDVWGQGTLVTVSS VL: DIVMTQSPDSLAVSLGERATINCKSSQSLLNARPGKNYLAWYQQKPGQPPKLLIYWASTRESGVPDRFSGSGSGTDFTLTISSLQAEDVAVYYCKQSYLHRTFGGGTKVEIK , please.
OUTPUT: 0.00239
